Below, each entry is listed alongside its reported pEC50.
target entity: T1, CD73 on the surface of human tumor cells (human, UniProt P21589 27-549)
T1 chain: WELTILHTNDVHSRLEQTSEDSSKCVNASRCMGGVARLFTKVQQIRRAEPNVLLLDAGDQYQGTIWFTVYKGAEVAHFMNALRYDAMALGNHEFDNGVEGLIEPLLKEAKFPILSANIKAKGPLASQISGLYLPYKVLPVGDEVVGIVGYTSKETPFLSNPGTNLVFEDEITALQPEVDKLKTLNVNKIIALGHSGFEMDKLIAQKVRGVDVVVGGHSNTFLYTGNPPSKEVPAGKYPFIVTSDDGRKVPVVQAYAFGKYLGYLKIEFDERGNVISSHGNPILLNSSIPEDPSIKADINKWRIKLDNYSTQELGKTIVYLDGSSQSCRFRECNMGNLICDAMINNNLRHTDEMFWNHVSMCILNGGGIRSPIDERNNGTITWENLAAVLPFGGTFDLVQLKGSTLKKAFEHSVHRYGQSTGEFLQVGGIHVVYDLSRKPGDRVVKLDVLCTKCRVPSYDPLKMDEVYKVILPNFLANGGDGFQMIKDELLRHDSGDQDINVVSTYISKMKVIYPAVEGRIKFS
procedure text: FACS; MDA-MB-231 cells, right table
Just the number, please; pEC50 means minus log10 of the concentration in mol/L.

Below, 4 binders whose answers are already recorded.
INSERT INTO results (binder, measurement) VALUES
  ('mAb002c (antibody, V domains shown) VH: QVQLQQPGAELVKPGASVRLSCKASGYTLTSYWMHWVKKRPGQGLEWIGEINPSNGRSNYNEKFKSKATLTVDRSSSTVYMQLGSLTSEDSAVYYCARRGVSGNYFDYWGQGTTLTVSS VL: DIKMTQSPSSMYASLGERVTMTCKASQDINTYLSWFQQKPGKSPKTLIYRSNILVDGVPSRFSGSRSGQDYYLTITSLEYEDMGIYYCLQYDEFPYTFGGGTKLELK', 9.33),
  ('Hu002c-16 (antibody, V domains shown) VH: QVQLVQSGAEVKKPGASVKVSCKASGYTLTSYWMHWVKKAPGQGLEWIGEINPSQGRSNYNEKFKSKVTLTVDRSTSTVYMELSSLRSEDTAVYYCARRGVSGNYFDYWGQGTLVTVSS VL: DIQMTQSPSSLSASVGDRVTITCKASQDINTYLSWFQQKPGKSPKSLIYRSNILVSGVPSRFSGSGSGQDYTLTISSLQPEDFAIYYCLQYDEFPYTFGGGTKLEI', 9.20),
  ('Hu002c-14 (antibody, V domains shown) VH: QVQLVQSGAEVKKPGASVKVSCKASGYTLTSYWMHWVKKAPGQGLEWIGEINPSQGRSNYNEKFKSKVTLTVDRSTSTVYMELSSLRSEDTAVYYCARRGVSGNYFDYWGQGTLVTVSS VL: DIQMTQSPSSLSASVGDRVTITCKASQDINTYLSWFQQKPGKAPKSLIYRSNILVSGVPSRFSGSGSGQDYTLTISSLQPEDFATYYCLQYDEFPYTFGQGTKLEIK', 9.19),
  ('Hu002c-10 (antibody, V domains shown) VH: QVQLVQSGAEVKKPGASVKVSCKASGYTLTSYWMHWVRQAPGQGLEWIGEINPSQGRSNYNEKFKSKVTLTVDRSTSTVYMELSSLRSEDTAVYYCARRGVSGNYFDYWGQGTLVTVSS VL: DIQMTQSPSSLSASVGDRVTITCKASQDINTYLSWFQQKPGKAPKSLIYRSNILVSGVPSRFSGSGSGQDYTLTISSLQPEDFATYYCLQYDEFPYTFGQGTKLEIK', 9.15);

Record Hu002c-11 (antibody, V domains shown) VH: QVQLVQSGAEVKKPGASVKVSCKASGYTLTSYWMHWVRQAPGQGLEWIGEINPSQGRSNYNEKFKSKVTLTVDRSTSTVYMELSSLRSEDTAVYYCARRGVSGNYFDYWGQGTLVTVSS VL: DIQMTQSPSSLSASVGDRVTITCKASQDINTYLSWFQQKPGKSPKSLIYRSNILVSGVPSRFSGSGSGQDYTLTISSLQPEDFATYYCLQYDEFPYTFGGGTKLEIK , field pEC50: 9.16
